tested on: NCI-H2126; experiment: relative viability (nuclei count vs DMSO), 5 days (fraction); higher = more cells survive; details: first compound 0.253 µM
For each entry below, report its relative viability value.
Answers are plain numbers.

Examples with answers:
{"compound": "C=C1C(=O)O[C@@H](CCCCCCCC)[C@@H]1C(=O)O [C-75] + NC(=O)Nc1cc(-c2cccc(F)c2)sc1C(=O)N[C@H]1CCCNC1 [AZD7762] (partner 0.2 µM)", "relative viability": 1.13}
{"compound": "Oc1nc(-c2ccc(C(F)(F)F)cc2)nc2c1CSCC2 [XAV939] + Cc1nc(Nc2ncc(C(=O)Nc3c(C)cccc3Cl)s2)cc(N2CCN(CCO)CC2)n1 [Dasatinib] (partner 0.075 µM)", "relative viability": 0.403}
{"compound": "C=C1C(=O)O[C@@H](CCCCCCCC)[C@@H]1C(=O)O [C-75] + CCNC(=O)c1noc(-c2cc(C(C)C)c(O)cc2O)c1-c1ccc(CN2CCOCC2)cc1 [Luminespib] (partner 0.01 µM)", "relative viability": 0.977}
{"compound": "Oc1nc(-c2ccc(C(F)(F)F)cc2)nc2c1CSCC2 [XAV939] + CC1(C)CCC(c2ccc(Cl)cc2)=C(CN2CCN(c3ccc(C(=O)NS(=O)(=O)c4ccc(N[C@H](CCN5CCOCC5)CSc5ccccc5)c(S(=O)(=O)C(F)(F)F)c4)cc3)CC2)C1 [Navitoclax] (partner 0.5 µM)", "relative viability": 0.653}

With those in mind, consider the next compound.
Enter relative viability (test system NCI-H2126) for Oc1nc(-c2ccc(C(F)(F)F)cc2)nc2c1CSCC2 [XAV939] + CCNC(=O)c1noc(-c2cc(C(C)C)c(O)cc2O)c1-c1ccc(CN2CCOCC2)cc1 [Luminespib] (partner 0.01 µM)
0.843

---

system: NCI-H1755; experiment: relative viability (nuclei count vs DMSO), 5 days (fraction); higher = more cells survive; conditions: first compound 0.4 µM
We label by threshold. Values of relative viability strictly beneath 0.8 are true. Values of 0.8 and up are false.

{"molecule": "O=C(O)c1ccc(-c2c[nH]c3ncc(-c4ccccc4)cc23)cc1C1CCCC1 + CS(=O)(=O)N1CCN(Cc2cc3nc(-c4cccc5[nH]ncc45)nc(N4CCOCC4)c3s2)CC1 [Pictilisib] (partner 1 µM)", "measurement target": "NCI-H1755", "qualitative label": "true"}
{"molecule": "O=C(O)c1ccc(-c2c[nH]c3ncc(-c4ccccc4)cc23)cc1C1CCCC1 + CC1(C)CCC(c2ccc(Cl)cc2)=C(CN2CCN(c3ccc(C(=O)NS(=O)(=O)c4ccc(N[C@H](CCN5CCOCC5)CSc5ccccc5)c(S(=O)(=O)C(F)(F)F)c4)cc3)CC2)C1 [Navitoclax] (partner 0.5 µM)", "measurement target": "NCI-H1755", "qualitative label": "false"}
{"molecule": "O=C(O)c1ccc(-c2c[nH]c3ncc(-c4ccccc4)cc23)cc1C1CCCC1 + Cc1cc(Nc2cc(N3CCN(C)CC3)nc(Sc3ccc(NC(=O)C4CC4)cc3)n2)n[nH]1 [Tozasertib] (partner 0.1 µM)", "measurement target": "NCI-H1755", "qualitative label": "true"}

Input O=C(O)c1ccc(-c2c[nH]c3ncc(-c4ccccc4)cc23)cc1C1CCCC1 + CC(=O)c1c(C)c2cnc(Nc3ccc(N4CCNCC4)cn3)nc2n(C2CCCC2)c1=O [Palbociclib] (partner 0.5 µM) ; condition: relative viability strictly below 0.8. Does it hold?
true
